Target: GLP-1 receptor
Experiment: cell-based or functional assay
Numbered stars: 1 amine (or outer) side, 2 acyl side, 3 side chain; on linkers, the order of the positions; unused ones are H or OH. Square brackets hold non-standard residues; d marks the D form. Primed or numbered codes have the meaning given here. Side chains are listed from the residue outwards. Ends that are not written are not given here. * marks the point of attachment. 40K‑TE PEG = 40 kDa PEG covalently bound via thioether, formed by reaction of the free thiol of the peptide (Cys side chain) with an iodoacetic-functionalized PEG; 40K‑TE PEG(3) = 40 kDa PEG bound to the Cys thiol via a thioether, made by reacting the free-thiol peptide with iodoacetic-functionalised PEG; 40K‑TE PEG″ = 40 kDa PEG bound to Cys via thioether made from an iodoacetyl-functionalised PEG; γGlu = O=C(O)[C@H](CCC(=O)[*:2])N[*:1]; Palmitoyl = CCCCCCCCCCCCCCCC(=O)*; Aib = CC(C)(N)C(=O)O
Below, each entry is listed alongside its reported EC50 (nM) at GLP-1 receptor.
Give just the numeric value; nM need not be written.

A selection of reference data follows.
H[Aib]QGTFTSDYSKYLD[Aib]KRA[Aib]EFVC(40K‑TE PEG(3))WLLDGGPSSGAPPPS-NH2 [peptide of SEQ ID NO: 46] : 0.136
H[Aib]QGTFTSDYSKYLDERRA[Aib]EFVC(40K‑TE PEG″)WLLDGGPSSGAPPPS-NH2 [peptide of SEQ ID NO: 35] : 0.085
H[Aib]QGTFTSDYSKYLDEKRA[Aib]EFVC(40K‑TE PEG)WLL[Aib]T-NH2 [peptide of SEQ ID NO: 41] : 0.074
H[dS]QGTFTSDK([γGlu-Palmitoyl])SKYLDERAAQDFVQWLLDGRG-NH2 [peptide of SEQ ID NO: 19] : 0.002

Item H[Aib]QGTFTSDYSKYLDEK[Aib]AKEFVC(40K‑TE PEG(3))WLLDT-NH2 [peptide of SEQ ID NO: 52] : provide EC50 (nM) at GLP-1 receptor
0.054

Reference source: patent US20120329707A1
